Values from PubChem BioAssay (Tox21)

# system.under.test: Progesterone receptor (Homo sapiens) (UniProt P06401)
# Sequence (P06401 whole entry, looked up): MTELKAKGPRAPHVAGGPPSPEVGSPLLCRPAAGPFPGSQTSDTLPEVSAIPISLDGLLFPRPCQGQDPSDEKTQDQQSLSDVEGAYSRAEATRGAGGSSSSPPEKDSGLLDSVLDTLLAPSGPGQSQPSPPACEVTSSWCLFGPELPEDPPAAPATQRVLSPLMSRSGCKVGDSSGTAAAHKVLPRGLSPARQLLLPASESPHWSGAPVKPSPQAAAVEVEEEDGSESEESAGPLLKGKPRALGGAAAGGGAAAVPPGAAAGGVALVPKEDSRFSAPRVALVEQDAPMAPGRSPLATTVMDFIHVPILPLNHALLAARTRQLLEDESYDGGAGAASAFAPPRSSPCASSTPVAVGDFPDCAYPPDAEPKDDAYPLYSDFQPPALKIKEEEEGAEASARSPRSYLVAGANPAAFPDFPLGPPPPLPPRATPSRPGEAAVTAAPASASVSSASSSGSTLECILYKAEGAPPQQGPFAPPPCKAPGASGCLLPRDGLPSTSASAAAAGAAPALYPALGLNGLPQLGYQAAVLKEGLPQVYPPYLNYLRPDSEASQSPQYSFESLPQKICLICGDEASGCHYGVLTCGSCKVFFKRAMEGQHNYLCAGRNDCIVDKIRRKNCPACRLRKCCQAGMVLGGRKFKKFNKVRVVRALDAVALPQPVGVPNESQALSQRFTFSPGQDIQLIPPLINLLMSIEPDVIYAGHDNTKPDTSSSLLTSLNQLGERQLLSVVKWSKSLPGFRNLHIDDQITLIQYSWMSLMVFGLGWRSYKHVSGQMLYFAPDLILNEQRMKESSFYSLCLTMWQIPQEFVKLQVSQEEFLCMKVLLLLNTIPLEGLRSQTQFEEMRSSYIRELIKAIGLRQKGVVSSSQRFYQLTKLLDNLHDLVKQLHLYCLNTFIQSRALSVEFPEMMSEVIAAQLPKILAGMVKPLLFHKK
# measurement.notes: qHTS assay to identify small molecule antagonists of the progesterone receptor (PR) signaling pathway (AID 1346795)
# condition.parameters: PR-UAS-bla HEK293T, beta-lactamase FRET ratio, 16 h; series mostly up to 92.4 µM
Records with an inconclusive call do not appear. Active and inactive are the calls of the source. The call rests on the fitted dose curve; in most records, active means well fitted inhibition curve with a large enough effect in the signal ratio in the repeat runs (not every such curve was filed as active); inconclusive means weak or mixed curves; inactive means flat fitted curve, though single readings scatter; the % refers to the signal ratio.
Write down one outcome, taken from T for active, F for inactive

Examples from the recorded data:
compound | class.name
Cc1ccc(-c2ccccc2)cc1 | F
Cc1c(C)c2c(c(C)c1O)CC[C@@](C)(CCC[C@H](C)CCC[C@H](C)CCCC(C)C)O2 | F
CC/C=C\CCCCCO | F

Qu. For this compound, state the assay outcome: Cc1cc(-c2ccc(N=Nc3cc(S(=O)(=O)O)c4ccccc4c3N)c(C)c2)ccc1N=Nc1cc(S(=O)(=O)O)c2ccccc2c1N
Ans. F

Qu. For this compound, state the assay outcome: C=C(C)c1cccc(C(=C)C)c1
Ans. F

Qu. For this compound, state the assay outcome: CCO[C@@H]1O[C@H](C(COCc2ccccc2)OCc2ccccc2)[C@H](OCc2ccccc2)[C@H]1O (some centres not stated)
Ans. T

Qu. For this compound, state the assay outcome: OC/C=C/CO
Ans. F

Qu. For this compound, state the assay outcome: OC1CCCc2ccccc21 (configuration not stated)
Ans. F

Qu. For this compound, state the assay outcome: CC(CO)Oc1ccccc1 (configuration not stated)
Ans. F

Qu. For this compound, state the assay outcome: CCCCCC(C)OC(=O)COc1ccc(Cl)c2cccnc12 (configuration not stated)
Ans. T

Qu. For this compound, state the assay outcome: CCCCC(CC)COC(=O)CCCCC(=O)OCc1ccccc1 (configuration not stated)
Ans. F

Qu. For this compound, state the assay outcome: CC1=Nc2ccccc2C1(C)C
Ans. T

Qu. For this compound, state the assay outcome: O=c1[nH]c(=O)n([C@H]2C[C@H](O)[C@@H](CO)O2)cc1F
Ans. F

Qu. For this compound, state the assay outcome: CCOC(=O)NNc1ccc(N(CC)CC(C)O)nn1 (configuration not stated)
Ans. F

Qu. For this compound, state the assay outcome: Cc1c(N)cccc1C(F)(F)F
Ans. F

Qu. For this compound, state the assay outcome: COc1cc(/C=C/c2ccccc2)oc(=O)c1
Ans. F

Qu. For this compound, state the assay outcome: CCOc1ccc2ccccc2c1C(=O)N[C@@H]1C(=O)N2[C@@H]1SC(C)(C)[C@@H]2C(=O)O
Ans. F

Qu. For this compound, state the assay outcome: Cc1cccc(C)c1NC(=O)c1ccc(N)cc1
Ans. F

Qu. For this compound, state the assay outcome: CCCCOC(=O)CC
Ans. F

Qu. For this compound, state the assay outcome: C1CCC(SSC2CCCCC2)CC1
Ans. F

Qu. For this compound, state the assay outcome: O=C(c1ccc(O)c(O)c1)c1ccc(O)cc1O
Ans. T
